assayed_target: ChoKα protein (Homo sapiens, UniProt P35790)
Construct: made in house
Sequence (P35790 75-457): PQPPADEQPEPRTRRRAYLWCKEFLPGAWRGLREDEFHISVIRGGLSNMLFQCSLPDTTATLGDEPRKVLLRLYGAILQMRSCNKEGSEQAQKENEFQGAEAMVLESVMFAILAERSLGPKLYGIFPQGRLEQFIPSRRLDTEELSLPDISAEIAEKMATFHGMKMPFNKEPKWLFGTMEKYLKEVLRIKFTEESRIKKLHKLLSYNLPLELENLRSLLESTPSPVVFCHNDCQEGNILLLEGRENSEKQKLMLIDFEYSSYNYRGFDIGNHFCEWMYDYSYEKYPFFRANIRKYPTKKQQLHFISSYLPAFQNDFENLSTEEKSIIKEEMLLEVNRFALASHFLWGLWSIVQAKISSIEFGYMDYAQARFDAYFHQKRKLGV
test_details: Binding affinity by surface plasmon resonance (SensiQ Pioneer, FastStep)
measurement_conditions: SPR, 1:1 binding model, upper concentration 500 nM; read-out: Kd
The reader will find reported Kd values listed item by item below.
reported_endpoint: Kd

>  <entry_smiles>
CN1CCCN(Cc2ccc(-c3ccc(S(C)(=O)=O)cc3)c(C#N)c2)CC1

>  <reported_endpoint>
Kd

>  <test_result>
< 200 nM

$$$$
>  <entry_smiles>
COc1ccc(-c2cc(C(=O)N3CCCN(C)CC3)ccc2-c2ccc(CN3CCCN(C)CC3)cc2C#N)cc1OC

>  <reported_endpoint>
Kd

>  <test_result>
< 50 nM

$$$$
>  <entry_smiles>
CN1CCCN(Cc2ccc(-c3ccc(C(=O)N4CCCN(C)CC4)cc3N)c(C#N)c2)CC1

>  <reported_endpoint>
Kd

>  <test_result>
< 60000 nM

$$$$
>  <entry_smiles>
CN1CCCN(Cc2ccc(-c3ccc(C4(NS(C)(=O)=O)CC4)cc3)c(C#N)c2)CC1

>  <reported_endpoint>
Kd

>  <test_result>
< 50 nM

$$$$
>  <entry_smiles>
CN1CCCN(Cc2ccc(-c3ccccc3)c(F)c2)CC1

>  <reported_endpoint>
Kd

>  <test_result>
< 60000 nM

$$$$
>  <entry_smiles>
CCOc1ccc(-c2cc(C(=O)N3CCCN(C)CC3)ccc2-c2ccc(CN3CCCN(C)CC3)cc2C#N)cc1

>  <reported_endpoint>
Kd

>  <test_result>
< 50 nM

$$$$
>  <entry_smiles>
CCN(CC)C1CCN(Cc2ccc(-c3ccc(CN4CCCN(C)CC4)cc3C#N)cc2)CC1

>  <reported_endpoint>
Kd

>  <test_result>
< 50 nM

$$$$
>  <entry_smiles>
CNS(=O)(=O)c1ccc(-c2ccc(CN3CCCN(C)CC3)cc2C#N)c(C)c1

>  <reported_endpoint>
Kd

>  <test_result>
< 200 nM

$$$$
